Listed next: entries and their corresponding CD3E-positive proportion [%] (Avg, n = 2), CD3-stably expressing 293T cells.
Molecular target: CD3E (human, UniProt P07766 23-207)
Sequence (P07766 23-207): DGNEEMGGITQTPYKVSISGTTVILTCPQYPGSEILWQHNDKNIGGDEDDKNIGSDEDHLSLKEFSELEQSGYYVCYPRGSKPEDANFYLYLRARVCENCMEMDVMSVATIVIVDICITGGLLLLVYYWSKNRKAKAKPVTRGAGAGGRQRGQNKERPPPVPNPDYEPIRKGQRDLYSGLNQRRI
Test: cell-based or functional assay
Property Label: CD3E-positive proportion [%] (Avg, n = 2), CD3-stably expressing 293T cells

Binder | Readout Value
modified TCR ba12 (TCR) TCR alpha: DVYITDKTVLDMRSMDFKSNSAVAWSNKSDFACANAFNNSIIPEDTFFPSPESSCDVKLVEKSFETDTNLNFQNLSVIGFRILLLKVAGFNLLMTLRLWSS TCR beta: ATLVCLATGFYPDHVELSWWVNGKEVHSGVSTDPQPLKEQPALNDSRYCLSSRLRVSATFWQNPRNHFRCQVQFYGLSENDEWTQDRAKPVTQIVSAEAWGRADCGFTSESYQQGVLSATILYEILLGKATLYAVLVSALVLMAMVKRKDSRG | 51%
modified TCR ba4 (TCR) TCR alpha: NIQNPDPAVYQLRDSKSSDKSVCLFTDFDSQTNVSQSKDSDVYITDKTVLDMRSMDFKSNSAVAWSNKSDFACANAFNNSIIPEDTFFPSPESSCDVKLVEKSFETDTNLNFQNLSVIGFRILLLKVAGFNLLMTLRLWSS TCR beta: VSTDPQPLKEQPALNDSRYCLSSRLRVSATFWQNPRNHFRCQVQFYGLSENDEWTQDRAKPVTQIVSAEAWGRADCGFTSESYQQGVLSATILYEILLGKATLYAVLVSALVLMAMVKRKDSRG | 10.2%
modified TCR ba7 (TCR) TCR alpha: SVCLFTDFDSQTNVSQSKDSDVYITDKTVLDMRSMDFKSNSAVAWSNKSDFACANAFNNSIIPEDTFFPSPESSCDVKLVEKSFETDTNLNFQNLSVIGFRILLLKVAGFNLLMTLRLWSS TCR beta: EDLKNVFPPEVAVFEPSEAEISHTQKATLVCLATGFYPDHVELSWWVNGKEVHSGVSTDPQPLKEQPALNDSRYCLSSRLRVSATFWQNPRNHFRCQVQFYGLSENDEWTQDRAKPVTQIVSAEAWGRADCGFTSESYQQGVLSATILYEILLGKATLYAVLVSALVLMAMVKRKDSRG | 88.6%
modified TCR ba9 (TCR) TCR alpha: KSNSAVAWSNKSDFACANAFNNSIIPEDTFFPSPESSCDVKLVEKSFETDTNLNFQNLSVIGFRILLLKVAGFNLLMTLRLWSS TCR beta: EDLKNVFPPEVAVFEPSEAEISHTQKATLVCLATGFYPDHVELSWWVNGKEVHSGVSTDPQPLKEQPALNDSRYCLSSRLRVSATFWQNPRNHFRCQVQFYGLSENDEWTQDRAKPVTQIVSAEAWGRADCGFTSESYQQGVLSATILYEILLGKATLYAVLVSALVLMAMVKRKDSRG | 90.7%
modified TCR ba17 (TCR) TCR alpha: KSNSAVAWSNKSDFACANAFNNSIIPEDTFFPSPESSCDVKLVEKSFETDTNLNFQNLSVIGFRILLLKVAGFNLLMTLRLWSS TCR beta: AKPVTQIVSAEAWGRADCGFTSESYQQGVLSATILYEILLGKATLYAVLVSALVLMAMVKRKDSRG | 81.9%
